- subject of test: G1 APOL1 (Homo sapiens, UniProt O14791, I384M/S342G)
- Construct: expressed in transfected cells
- assay protocol: Acute APOL1 Thallium Assay with inducible stable clones of HEK 293 cells
- Type: cell-based
- study conditions: HEK 293 T-Rex inducible stable clone expressing G1 APOL1; read-out: Thallium Assay (IC50)
property label: IC50

Form entry - test system: G1 APOL1 (Homo sapiens, UniProt O14791, I384M/S342G); read-out: IC50; molecule: COc1ccc(-c2[nH]c3c(F)cc(F)cc3c2C2CC(N)C2)cc1 (mixture of isomers)
250 to 1000 nM

Form entry - test system: G1 APOL1 (Homo sapiens, UniProt O14791, I384M/S342G); read-out: IC50; molecule: O=C1NCCC1C(=O)N[C@H]1C[C@@H](c2c(-c3ccc(F)cc3)[nH]c3c(F)cc(F)cc32)C1 (some centres unmarked)
> 1000 nM

Form entry - test system: G1 APOL1 (Homo sapiens, UniProt O14791, I384M/S342G); read-out: IC50; molecule: "O=C1C[C@@H](C(=O)NC[C@H]2C[C@@H](c3c(-c4ccc(F)cc4)[nH]c4c(F)cc(F)cc43)C2)N1"
> 1000 nM

Form entry - test system: G1 APOL1 (Homo sapiens, UniProt O14791, I384M/S342G); read-out: IC50; molecule: CC(NS(C)(=O)=O)C(=O)NC[C@H]1C[C@@H](c2c(-c3ccc(F)cc3)[nH]c3c(F)cc(F)cc32)C1 (mixture of isomers)
> 1000 nM

Form entry - test system: G1 APOL1 (Homo sapiens, UniProt O14791, I384M/S342G); read-out: IC50; molecule: O=C1NCC[C@@H]1NC1CC(c2c(-c3ccc(F)cc3)[nH]c3c(F)cc(F)cc23)C1 (some centres unmarked)
< 250 nM

Form entry - test system: G1 APOL1 (Homo sapiens, UniProt O14791, I384M/S342G); read-out: IC50; molecule: "O=S(=O)(NC[C@H]1C[C@H](c2c(-c3ccc(F)cc3)[nH]c3c(F)cc(F)cc32)C1)NC1(CO)CC1"
250 to 1000 nM

----------
Measured IC50 values are reported for all entries that follow.
- subject of test: T1, G1 APOL1 (Homo sapiens, UniProt O14791, I384M/S342G)
- T1 construct: expressed in transfected cells
- T1 sequence (O14791 28-398 S342G/I384M): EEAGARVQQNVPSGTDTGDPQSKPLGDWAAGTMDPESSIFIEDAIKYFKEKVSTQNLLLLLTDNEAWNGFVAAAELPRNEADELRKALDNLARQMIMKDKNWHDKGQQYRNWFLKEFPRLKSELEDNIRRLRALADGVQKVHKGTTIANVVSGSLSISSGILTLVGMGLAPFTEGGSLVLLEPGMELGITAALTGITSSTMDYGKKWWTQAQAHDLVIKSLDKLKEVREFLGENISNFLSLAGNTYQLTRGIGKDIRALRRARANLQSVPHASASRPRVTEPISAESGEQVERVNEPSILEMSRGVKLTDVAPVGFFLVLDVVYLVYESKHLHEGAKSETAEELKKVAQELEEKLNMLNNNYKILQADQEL
- assay protocol: Acute APOL1 Thallium Assay with inducible stable clones of HEK 293 cells
- Type: cell-based
- study conditions: HEK 293 T-Rex inducible stable clone expressing G1 APOL1; read-out: Thallium Assay (IC50)
- From the text: Acute APOL1 Thallium Assay with Inducible Stable Clones of HEK 293 Cells Apolipoprotein L1 (APOL1) proteins form potassium-permeable cation pores in the plasma membrane. APOL1 risk variants (G1 and G2) induce greater potassium flux than G0 in HEK293 cells. […] The increase of fluorescence in the assay represents the influx of T1+ into the cell specifically through the potassium channel (i.e. through APOL1 pores), providing a functional measurement of potassium channel/pore activity. […]

CC1(C(=O)N[C@H]2C[C@H](c3c(-c4ccc(F)cc4)[nH]c4c(F)cc(F)cc43)C2)CC(=O)C1 : 250 to 1000 nM
O=C1CC(CC(=O)NC2CC(Cc3c(-c4ccc(F)cc4)[nH]c4c(F)cc(F)cc34)C2)C(=O)N1 (centres unmarked) : > 1000 nM
O=C1C[C@H](C(=O)NC[C@H]2C[C@H](c3c(-c4ccc(F)cc4)[nH]c4c(F)cc(F)cc43)C2)N1 : > 1000 nM
CS(=O)(=O)CCC(=O)N[C@H]1C[C@@H](c2c(-c3ccc(F)cc3)[nH]c3c(F)cc(F)cc32)C1 : > 1000 nM
O=C(CC1CCOCC1)NC[C@H]1C[C@@H](c2c(-c3ccc(F)cc3)[nH]c3c(F)cc(F)cc32)C1 : > 1000 nM
N#CCC(=O)N[C@H]1C[C@@H](c2c(-c3ccc(F)cc3)[nH]c3c(F)cc(F)cc32)C1 : > 1000 nM
OC[C@H]1C[C@H](c2c(-c3ccc(F)cc3)[nH]c3c(F)cc(F)cc32)C1 : < 250 nM
CN1CCC(CC(=O)NC[C@H]2C[C@@H](c3c(-c4ccc(F)cc4)[nH]c4c(F)cc(F)cc43)C2)C1 (some centres unmarked) : > 1000 nM

Item under review: "O=C(N[C@H]1C[C@H](c2c(-c3ccc(F)cc3)[nH]c3c(F)cc(F)cc32)C1)OCc1ccccc1" . Reported IC50?
> 1000 nM

Item under review: "O=S(=O)(N[C@H]1C[C@@H](c2c(-c3ccc(F)cc3)[nH]c3c(F)cc(F)cc32)C1)c1cn[nH]c1" . Reported IC50?
> 1000 nM

Item under review: "Cn1ccc(CC(=O)N[C@H]2C[C@H](c3c(-c4ccc(F)cc4)[nH]c4c(F)cc(F)cc43)C2)n1" . Reported IC50?
250 to 1000 nM

Item under review: Fc1ccc(-c2[nH]c3c(F)cc(F)cc3c2C2CC(CNC3CCOC3)C2)cc1 (centres unmarked) . Reported IC50?
> 1000 nM

----------
- subject of test: G1 APOL1 (Homo sapiens, UniProt O14791, I384M/S342G)
- Construct: expressed in transfected cells
- assay protocol: Acute APOL1 Thallium Assay with inducible stable clones of HEK 293 cells
- Assay type: cell-based
- study conditions: HEK 293 T-Rex inducible stable clone expressing G1 APOL1; read-out: Thallium Assay (IC50)
property label: IC50

Item under review: "C[C@H](O)C(=O)N1CC(Cc2c(-c3ccc(F)cc3)[nH]c3c(F)cc(F)cc23)C1" . Reported IC50?
< 250 nM

Item under review: "NCC(=O)NC[C@H]1C[C@@H](c2c(-c3ccc(F)cc3)[nH]c3c(F)cc(F)cc32)C1" . Reported IC50?
< 250 nM

Item under review: O=S(=O)(NC[C@H]1C[C@H](c2c(-c3ccc(F)cc3)[nH]c3c(F)cc(F)cc32)C1)NC(CO)CF (some centres unmarked) . Reported IC50?
250 to 1000 nM

Item under review: O=C1CCC(NCC2CC(c3c(-c4ccc(F)cc4)[nH]c4c(F)cc(F)cc34)C2)C(=O)N1 (centres unmarked) . Reported IC50?
250 to 1000 nM

Item under review: "CC(=O)NCC(=O)NC[C@H]1C[C@H](c2c(-c3ccc(F)cc3)[nH]c3c(F)cc(F)cc32)C1" . Reported IC50?
> 1000 nM

Item under review: "O=C(CC1CCOCC1)N[C@H]1C[C@H](c2c(-c3ccc(F)cc3)[nH]c3c(F)cc(F)cc32)C1" . Reported IC50?
> 1000 nM

Item under review: "NS(=O)(=O)CCCC(=O)N[C@H]1C[C@@H](c2c(-c3ccc(F)cc3)[nH]c3c(F)cc(F)cc32)C1" . Reported IC50?
250 to 1000 nM

Item under review: "O=S(=O)(NC[C@H](O)CO)NC[C@H]1C[C@H](c2c(-c3ccc(F)cc3)[nH]c3c(F)cc(F)cc32)C1" . Reported IC50?
> 1000 nM

Item under review: "CNS(=O)(=O)NC[C@H]1C[C@H](c2c(-c3ccc(F)cc3)[nH]c3c(F)cc(F)cc32)C1" . Reported IC50?
> 1000 nM

Item under review: "Cc1nccn1CC(=O)NC[C@H]1C[C@@H](c2c(-c3ccc(F)cc3)[nH]c3c(F)cc(F)cc32)C1" . Reported IC50?
> 1000 nM

Item under review: "Cc1[nH]cnc1CCNS(=O)(=O)NC[C@H]1C[C@H](c2c(-c3ccc(F)cc3)[nH]c3c(F)cc(F)cc32)C1" . Reported IC50?
> 1000 nM

Item under review: O=C(CCO)NC1CC(c2c(-c3ccc(F)cc3)[nH]c3c(F)cc(C(F)(F)F)cc23)C1 (mixture of isomers) . Reported IC50?
250 to 1000 nM

Item under review: "O=C(N[C@H]1C[C@@H](c2c(-c3ccc(F)cc3)[nH]c3c(F)cc(F)cc32)C1)OCc1ccccc1" . Reported IC50?
> 1000 nM

Item under review: "O=C(CCO)N[C@H]1C[C@H](c2c(-c3ccc(F)cc3)[nH]c3c(F)cc(F)cc32)C1" . Reported IC50?
< 250 nM

Item under review: "O=C(CC(=O)N1CCOCC1)N[C@H]1C[C@@H](c2c(-c3ccc(F)cc3)[nH]c3c(F)cc(F)cc32)C1" . Reported IC50?
250 to 1000 nM

Item under review: "O=C(CN1CCOCC1)N[C@H]1C[C@H](c2c(-c3ccc(F)cc3)[nH]c3c(F)cc(F)cc32)C1" . Reported IC50?
> 1000 nM

Item under review: CN1CCCC(CC(=O)N[C@H]2C[C@@H](c3c(-c4ccc(F)cc4)[nH]c4c(F)cc(F)cc43)C2)C1 (some centres unmarked) . Reported IC50?
> 1000 nM
